tested on: Pseud. aeruginosa EP-01; assay: Antibacterial activities, MIC; assay type: cell-based; conditions: Pseudomonas aeruginosa, EP01, Pseud. aeruginosa EP-01; read-out: MIC
Measured parameter: MIC (µg/mL)
Number in µg/mL, nothing else.

Some solved entries appear below for comparison.
[[record]]
compound = "CO/N=C(\\C(=O)N[C@@H]1C(=O)N2C(C(=O)[O-])=C(/C=C/C[N+]3(C)CCN(C(N)=O)CC3)CS[C@H]12)c1nsc(N)n1 [Example 29]"
reported = 1.56

[[record]]
compound = "CO/N=C(\\C(=O)N[C@@H]1C(=O)N2C(C(=O)[O-])=C(/C=C/C[N+]3(C)CC(O)CC3CO)CS[C@H]12)c1nsc(N)n1 (some centres unmarked) [Example 43]"
reported = 1.56

[[record]]
compound = "CO/N=C(\\C(=O)N[C@@H]1C(=O)N2C(C(=O)[O-])=C(/C=C/C[N+]3(C)CCCN3C)CS[C@H]12)c1nsc(N)n1 (single isomer, unassigned) [Example 30-A]"
reported = 0.4

[[record]]
compound = "CO/N=C(\\C(=O)N[C@@H]1C(=O)N2C(C(=O)[O-])=C(/C=C/C[N+](C)(C)Cc3cc[nH]n3)CS[C@H]12)c1nsc(N)n1 [Example 24]"
reported = 3.13

[[record]]
compound = "CO/N=C(\\C(=O)N[C@@H]1C(=O)N2C(C(=O)[O-])=C(/C=C/C[N+]34CCN(CC3)CC4)CS[C@H]12)c1nsc(N)n1 [Example 32]"
reported = 0.8


Return the recorded MIC value; entry: CO/N=C(\C(=O)N[C@@H]1C(=O)N2C(C(=O)[O-])=C(/C=C/C[N+](C)(C)CC(C)=O)CS[C@H]12)c1nsc(N)n1 [Example 17]
1.56

Return the recorded MIC value; entry: CO/N=C(\C(=O)N[C@@H]1C(=O)N2C(C(=O)[O-])=C(/C=C/C[N+](C)(C)CC(N)=O)CS[C@H]12)c1nsc(N)n1 [Example 1]
0.8

Return the recorded MIC value; entry: CO/N=C(\C(=O)N[C@@H]1C(=O)N2C(C(=O)[O-])=C(/C=C/C[N+](C)(C)Cc3csc(N)n3)CS[C@H]12)c1nsc(N)n1 [Example 25]
3.13

Return the recorded MIC value; entry: CO/N=C(\C(=O)N[C@@H]1C(=O)N2C(C(=O)[O-])=C(/C=C/C[N+]3(C)CC=CC3)CS[C@H]12)c1nsc(N)n1 [Example 2]
1.56

Return the recorded MIC value; entry: CO/N=C(\C(=O)N[C@@H]1C(=O)N2C(C(=O)[O-])=C(/C=C/C[N+](C)(C)CCO)CS[C@H]12)c1nsc(N)n1 [Example 18-A]
0.8

Return the recorded MIC value; entry: CO/N=C(\C(=O)N[C@@H]1C(=O)N2C(C(=O)[O-])=C(/C=C/C[N+](C)(C)Cc3ncon3)CS[C@H]12)c1nsc(N)n1 [Example 21]
1.56

---

tested on: Staph. aureus 209-P; assay: Antibacterial activities, MIC; assay type: cell-based; conditions: Staphylococcus aureus, read-out: MIC
Measured parameter: MIC (µg/mL)
Number in µg/mL, nothing else.

Some solved entries appear below for comparison.
[[record]]
mol = "CO/N=C(\\C(=O)N[C@@H]1C(=O)N2C(C(=O)[O-])=C(/C=C/C[N+](C)(C)CC(N)=O)CS[C@H]12)c1nsc(N)n1"
measured_parameter = "MIC"
reported = 0.4

[[record]]
mol = "CO/N=C(\\C(=O)N[C@@H]1C(=O)N2C(C(=O)[O-])=C(/C=C/C[N+](C)(C)CCN(C)C)CS[C@H]12)c1nsc(N)n1"
measured_parameter = "MIC"
reported = 0.4


API: the following record is the query input.
Return the recorded MIC value; entry: CO/N=C(\C(=O)N[C@@H]1C(=O)N2C(C(=O)[O-])=C(/C=C/C[N+]34CCN(CC3)CC4)CS[C@H]12)c1nsc(N)n1
0.2

Where these numbers come from: patent US5373000A
